system: HL-60(TB) leukemia; experiment: NCI-60 one-dose screen, 48 h; details: 10 µM unless noted
Compounds without any hit were thinned out: in the full panel of roughly 83,000, 20% have a hit. The source made the active and inactive calls. Rule for the calls: active = growth percent below 10; inactive = the rest.
Classes used: 1.0 for active, 0.0 for inactive

[[record]]
compound = "COc1cc(/C=C/C(=O)/C=C/c2cc(OC)c3c(c2OC)OCO3)c(OC)c2c1OCO2"
group_label = 0.0

[[record]]
compound = "O=C(Nc1ccc2c(c1)-c1ccccc1C2)C1CC(=O)N(c2ccc3c(c2)OCO3)C1 (stereo not drawn)"
group_label = 0.0

[[record]]
compound = "COc1cccc(-c2cc(-c3cccc(Cl)c3)c(C#N)c(=O)[nH]2)c1"
group_label = 0.0

[[record]]
compound = "C=C1C(=O)O[C@H]2[C@H]1CC/C(COC(=O)NCc1c[nH]c3ccccc13)=C\\CC[C@@]1(C)O[C@@H]21"
group_label = 1.0

[[record]]
compound = "CO[C@]12C=C/C(=C(/C(=O)OCc3cccnc3)C(=O)CCCCCCCC[C@]3(OC)C=C/C(=C(/C(=O)OCc4cccnc4)C(=O)CCCCCCCC1)O3)O2"
group_label = 1.0

[[record]]
compound = "CC(C)(C)C(CCc1ccc(Cl)cc1)N1CCN(C2CCCCC2)CC1 (stereo not drawn)"
group_label = 0.0

[[record]]
compound = "CCOC(=O)C1C(C(=O)OCC)C2C(=O)C3C(C(=O)OCC)C(C(=O)OCC)C3C(=O)C12 (stereo not drawn)"
group_label = 0.0

[[record]]
compound = "Cc1ccc([N+](=O)[O-])c(C)n1"
group_label = 0.0

[[record]]
compound = "COC(=O)/C(CCC=C(C)C)=C1\\[C@@H](OC(C)=O)C[C@@]2(C)[C@H]1CC(=O)[C@H]1[C@@]3(C)CCC(N4CCCC4)[C@@H](C)[C@@H]3CC[C@@]12C (stereo partly drawn)"
group_label = 1.0

[[record]]
compound = "COc1ccccc1NC(=O)Nc1ccc(-c2nc3ccccc3o2)cc1"
group_label = 0.0

[[record]]
compound = "Cc1cc(Br)c2nsnc2c1[N+](=O)[O-]"
group_label = 0.0

[[record]]
compound = "COc1ccc2c(c1)/C(=C/c1c(-c3cc(OC)c(OC)c(OC)c3Br)nc3sccn13)C(=O)N2"
group_label = 0.0

[[record]]
compound = "CCC(C)N(c1ccc(Cl)cc1)c1nc(-c2ccc(Br)cc2)cs1 (stereo not drawn)"
group_label = 0.0

[[record]]
compound = "O=C(Nc1ccc(Cl)cn1)C1(c2ccccc2)CCCCC1"
group_label = 0.0

[[record]]
compound = "O=C(CSc1nnc(-c2ccccc2)o1)Nc1ccc(C(=O)/C=C/c2ccccc2)cc1"
group_label = 0.0

[[record]]
compound = "CCN(CC)CCC(CNc1c2ccc([N+](=O)[O-])cc2nc2cc(OC)c(OC)cc12)c1ccccc1 (stereo not drawn)"
group_label = 1.0

[[record]]
compound = "CCCCC(CC)OC(=O)C(Br)CC (stereo not drawn)"
group_label = 0.0

[[record]]
compound = "COc1cc(-c2nn(-c3ccc(Br)cc3)cc2CO)ccc1O"
group_label = 0.0


====

tested on: MALME-3M melanoma; experiment: NCI-60 one-dose screen, 48 h (100 = growth as untreated, 0 = no growth, -100 = all killed); conditions: 10 µM unless noted
The panel holds about 83,000 compounds, 20% with a hit somewhere; the sample as a whole holds those more often.
Known growth of a selection of compounds
QUANTITY_KIND: growth (%)

[[record]]
compound = "CCC(C)(C)O"
units_text = "%"
reported_value = 110

[[record]]
compound = "COc1ccc(C2=NN(c3ccccc3)C(c3sc(N(CCCl)CCCl)nc3Cl)C2)cc1 (stereo not drawn)"
units_text = "%"
reported_value = 99.3

[[record]]
compound = "CCN(CC)c1ccc(C=C2C(=O)NC(=S)NC2=O)cc1"
units_text = "%"
reported_value = 123


====

system: NCI-H23 lung; assay: NCI-60 one-dose screen, 48 h (100 = growth as untreated, 0 = no growth, -100 = all killed); details: 10 µM unless noted
Compounds without any hit were thinned out: in the full panel of roughly 83,000, 20% have a hit.
Known growth of a selection of compounds
QUANTITY_KIND: growth (%)

[[record]]
compound = "CCC(C)(C)O"
quantity_kind = "growth"
reported_value = 111

[[record]]
compound = "CC1(C)N=C(N)N=C(N)N1c1ccc(OCCCCNC(=O)Nc2cccc(S(=O)(=O)F)c2)c(Cl)c1"
quantity_kind = "growth"
reported_value = 39.8

[[record]]
compound = "CC(=O)N1N=C(c2ccccc2)CC1c1sc(N(CCCl)CCCl)nc1Cl (configuration not stated)"
quantity_kind = "growth"
reported_value = 85.8

[[record]]
compound = "COC(=O)C(=[N+]=[N-])C(=O)OC"
quantity_kind = "growth"
reported_value = 98.1

[[record]]
compound = "[Br][Pb]([c]1ccccc1)([c]1ccccc1)[c]1ccccc1"
quantity_kind = "growth"
reported_value = -88.8

[[record]]
compound = "COC[CH2][Hg][C]#[C][Hg][CH2]COC"
quantity_kind = "growth"
reported_value = 71

[[record]]
compound = "O=C(C(=O)N1CCCC1)c1cn(CCCCCn2cc(C(=O)C(=O)N3CCCC3)c3ccccc32)c2ccccc12"
quantity_kind = "growth"
reported_value = 91.1


====

system: HL-60(TB) leukemia; assay: NCI-60 one-dose screen, 48 h (100 = growth as untreated, 0 = no growth, -100 = all killed); settings: 10 µM unless noted
Compounds without any hit were thinned out: in the full panel of roughly 83,000, 20% have a hit.
Output Criterion met for records whose growth is lower than 20%, Criterion not met for records at or above 20%.

[[record]]
compound = "COC(=O)c1c[nH]c2cc(OC(C)C)c(OC(C)C)cc2c1=O"
group_label = "Criterion not met"

[[record]]
compound = "O=S(=O)(c1ccc(N/N=C\\c2ccccc2Cl)cc1)c1ccc(N/N=C/c2ccccc2Cl)cc1"
group_label = "Criterion not met"

[[record]]
compound = "CCCCOC(=O)c1cc(O)c(O)c(O)c1"
group_label = "Criterion not met"

[[record]]
compound = "CCCCc1n(Cc2ccc3ccccc3n2)cc[n+]1Cc1ccc2ccccc2n1"
group_label = "Criterion met"

[[record]]
compound = "CCSCC1CC(O)(c2ccccc2)C(c2ccccc2)C(c2ccc(F)cc2)O1 (stereo not given)"
group_label = "Criterion met"


====

Tested on: OVCAR-3 ovarian
Experiment: NCI-60 one-dose screen, 48 h
Details: 10 µM unless noted
Protocol: Growth inhibition of the OVCAR-3 human tumor cell line is measured as a screen for anti-cancer activity. Cells are grown in 96 well plates and exposed to the test compound for 48 hours. Compounds are tested at a single concentration, which is 10^-5 M for most compounds. The reported endpoint is percent growth (GI% or GIPRCNT), where numbers from 0 - 100% represent growth inhibition, and numbers from -100% - 0 represent cell death. For example, a value of 40 represents 60% growth inhibition. […]
Compounds without any hit were thinned out: in the full panel of roughly 83,000, 20% have a hit. Active and inactive are the calls of the source. Rule for the calls: active = growth percent below 10; inactive = the rest.
Classes used: 1 (active), 0 (inactive)

[[record]]
molecule = "CNC(=O)Oc1ccccc1"
group_label = 0

[[record]]
molecule = "COc1cc(C2=NN(c3ccccc3)C(c3sc(N(CCCl)CCCl)nc3Cl)C2)cc(OC)c1OC (stereo not given)"
group_label = 0

[[record]]
molecule = "CCC(/C=C(C)/C=C/C(=O)c1c(O)c(-c2ccc(O)cc2)c[nH]c1=O)CO (stereo not given)"
group_label = 0

[[record]]
molecule = "c1ccc([As]=[As]c2ccccc2)cc1 (stereo not given)"
group_label = 1

[[record]]
molecule = "CC(C)(NC(=O)c1nn(CCCCCF)c2ccccc12)c1ccccc1"
group_label = 0


====

tested on: SF-295 CNS; assay: NCI-60 one-dose screen, 48 h; settings: 10 µM unless noted
Compounds without any hit were thinned out: in the full panel of roughly 83,000, 20% have a hit. Calls of active or inactive are those of the source. The calls were made as follows: active = growth percent below 10; inactive = the rest.
Classes used: 1 for active, 0 for inactive

[[record]]
compound = "CN(Cc1cccnc1)N=O"
group_label = 0

[[record]]
compound = "CC(C)OC(=S)[S-].[Au+].c1ccc([PH+](c2ccccc2)c2ccccc2)cc1"
group_label = 0

[[record]]
compound = "NS(=O)(=O)c1nc[nH]c1[N+](=O)[O-]"
group_label = 0

[[record]]
compound = "C/C1=C/C(=O)O[C@@H]2C[C@@H](CC[C@H](C)/C=C\\C=C\\CC1)O[C@@](OCCc1ccccc1)([C@@H]1CSC(=O)N1)C2"
group_label = 0

[[record]]
compound = "O=[N+]([O-])c1ccccc1N1CCNCC1"
group_label = 0

[[record]]
compound = "CC1([N+](=O)[O-])COP(=O)(Nc2ccc(F)cc2)OC1 (configuration not stated)"
group_label = 0

[[record]]
compound = "Nc1ncnc2c1c(C(=O)NO)cn2C1OC(CO)C(O)C1O (configuration not stated)"
group_label = 1

[[record]]
compound = "C1CN1c1nc(N2CC2)nc(N2CC2)n1"
group_label = 0

[[record]]
compound = "CC[C@@H](C)/C=C(C)/C=C/C(=O)c1c(O)c(-c2ccc(O)cc2)cn(O)c1=O"
group_label = 1

[[record]]
compound = "CC(=O)Oc1ccc(Cl)cc1"
group_label = 0

[[record]]
compound = "O1[As]2O[As]3O[As]1O[As](O2)O3"
group_label = 1

[[record]]
compound = "O=S(=O)(F)c1ncnc2nc[nH]c12"
group_label = 0

